tested on: Mus musculus; assay: Prodrug conversion in ip dosed Swiss mouse assessed as albitiazolium bromide formation administered QD for 4 days; assay type: ADME, organism-based; conditions: in vivo, 96 h
measured parameter: Drug metabolism

Examples with their reported Drug metabolism follow.
- smiles input: "CSS/C(CCOC(=O)[C@@H](N)CCCCN)=C(/C)N(C=O)CCCCCCCCCCCCN(C=O)/C(C)=C(/CCOC(=O)[C@@H](N)CCCCN)SSC.Cl.Cl"
  system: "Mus musculus"
  measured parameter: "Drug metabolism"
  measured value: "Active"
- smiles input: "CSS/C(CCOC(=O)[C@@H](N)C(C)C)=C(/C)N(C=O)CCCCCCCCCCCCN(C=O)/C(C)=C(/CCOC(=O)[C@@H](N)C(C)C)SSC.Cl"
  system: "Mus musculus"
  measured parameter: "Drug metabolism"
  measured value: "Active"
- smiles input: "CCSS/C(CCO)=C(/C)N(C=O)CCCCCCCCCCCCN(C=O)/C(C)=C(/CCO)SSCC"
  system: "Mus musculus"
  measured parameter: "Drug metabolism"
  measured value: "Active"
- smiles input: "CSS/C(CCO)=C(/C)N(C=O)CCCCCCCCCCCCN(C=O)/C(C)=C(/CCO)SSC"
  system: "Mus musculus"
  measured parameter: "Drug metabolism"
  measured value: "Active"
- smiles input: "C/C1=C(\\CCO)SS/C(CCO)=C(/C)N(C=O)CCCCCCCCCCCCN1C=O"
  system: "Mus musculus"
  measured parameter: "Drug metabolism"
  measured value: "Active"
- smiles input: "C/C1=C(\\CCOC(=O)[C@@H](N)CCCCN)SS/C(CCOC(=O)[C@@H](N)CCCCN)=C(/C)N(C=O)CCCCCCCCCCCCN1C=O.Cl.Cl"
  system: "Mus musculus"
  measured parameter: "Drug metabolism"
  measured value: "Active"

Please turn your attention to the following entry.
// fetch Drug metabolism given entry C/C(=C(\CCOP(=O)([O-])[O-])SSCc1ccccc1)N(C=O)CCCCCCCCCCCCN(C=O)/C(C)=C(/CCOP(=O)([O-])[O-])SSCc1ccccc1.[Li+].[Li+].[Li+].[Li+]
Active

Reference for the values: ChEMBL document CHEMBL2062403
